Reported values of shrunken log2 fold change for individual entries
Test system: Escherichia coli TOP10
Assay details: shrunken log2 fold change of peptide-encoding DNA abundance (4.5 h post-induction vs induction); higher = less antimicrobial activity (less host growth inhibition)
Assay context: time post-induction: 4.5 h; library: site-saturation at positions 5, 18, 19, 20
Keep the answer to the number alone.

# example entries with known answers
[
  {
    "Sequence input": "RRIRCRPPRLPRPRPRPLDNPRP",
    "shrunken log2 fold change": -0.235
  },
  {
    "Sequence input": "RRIRGRPPRLPRPRPRPHNYPRP",
    "shrunken log2 fold change": -0.248
  },
  {
    "Sequence input": "RRIRYRPPRLPRPRPRPWSGPRP",
    "shrunken log2 fold change": -0.184
  },
  {
    "Sequence input": "RRIRTRPPRLPRPRPRPYWCPRP",
    "shrunken log2 fold change": -0.53
  },
  {
    "Sequence input": "RRIRVRPPRLPRPRPRPTMLPRP",
    "shrunken log2 fold change": -0.205
  },
  {
    "Sequence input": "RRIRARPPRLPRPRPRPLKIPRP",
    "shrunken log2 fold change": -0.165
  },
  {
    "Sequence input": "RRIRTRPPRLPRPRPRPFFDPRP",
    "shrunken log2 fold change": -0.429
  },
  {
    "Sequence input": "RRIRMRPPRLPRPRPRPMWAPRP",
    "shrunken log2 fold change": 0.392
  }
]

Fill blank: measured shrunken log2 fold change of the sequence RRIRLRPPRLPRPRPRPMAVPRP is ____.
-0.0225

Fill blank: measured shrunken log2 fold change of the sequence RRIRPRPPRLPRPRPRPRGKPRP is ____.
-0.0806

Fill blank: measured shrunken log2 fold change of the sequence RRIRGRPPRLPRPRPRPPHMPRP is ____.
0.489

Fill blank: measured shrunken log2 fold change of the sequence RRIRVRPPRLPRPRPRPSPAPRP is ____.
0.34

Fill blank: measured shrunken log2 fold change of the sequence RRIRWRPPRLPRPRPRPFLAPRP is ____.
-0.0712

---

Test system: Escherichia coli TOP10;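 note: peptides expressed intracellularly from a pBAD plasmid library in pooled LB shake-flask culture, induced with 0.3% L-arabinose, DNA abundance read by NGS, three biological replicates, DESeq2 with apeglm shrinkage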
Assay details: shrunken log2 fold change of peptide-encoding DNA abundance (4.5 h post-induction vs induction); higher = less antimicrobial activity (less host growth inhibition)
Assay context: time post-induction: 4.5 h; library: site-saturation at positions 5, 18, 19, 20
Rule: shrunken log2 fold change of 0.04 or more gives TRUE; anything lower gives FALSE.

# example entries with known answers
[
  {
    "Sequence input": "RRIRTRPPRLPRPRPRPAMFPRP",
    "Category": "FALSE"
  },
  {
    "Sequence input": "RRIRRRPPRLPRPRPRPVMYPRP",
    "Category": "FALSE"
  },
  {
    "Sequence input": "RRIRKRPPRLPRPRPRPYIKPRP",
    "Category": "FALSE"
  },
  {
    "Sequence input": "RRIRMRPPRLPRPRPRPSIGPRP",
    "Category": "FALSE"
  },
  {
    "Sequence input": "RRIRDRPPRLPRPRPRPWFQPRP",
    "Category": "FALSE"
  },
  {
    "Sequence input": "RRIRHRPPRLPRPRPRPNGQPRP",
    "Category": "FALSE"
  }
]

Hello, I need to know if RRIRWRPPRLPRPRPRPVMGPRP has measured shrunken log2 fold change not below 0.04. Thanks!
TRUE

Hello, I need to know if RRIRVRPPRLPRPRPRPYRNPRP has measured shrunken log2 fold change not below 0.04. Thanks!
FALSE

Hello, I need to know if RRIRWRPPRLPRPRPRPRNWPRP has measured shrunken log2 fold change not below 0.04. Thanks!
TRUE

Hello, I need to know if RRIRRRPPRLPRPRPRPTRNPRP has measured shrunken log2 fold change not below 0.04. Thanks!
TRUE

Hello, I need to know if RRIRIRPPRLPRPRPRPQHNPRP has measured shrunken log2 fold change not below 0.04. Thanks!
FALSE

Hello, I need to know if RRIRNRPPRLPRPRPRPSSLPRP has measured shrunken log2 fold change not below 0.04. Thanks!
FALSE

Hello, I need to know if RRIRWRPPRLPRPRPRPNKYPRP has measured shrunken log2 fold change not below 0.04. Thanks!
FALSE

Hello, I need to know if RRIRFRPPRLPRPRPRPTHVPRP has measured shrunken log2 fold change not below 0.04. Thanks!
TRUE

Data provenance: the supplement of paper PMC9112550
